# System: Putative P2Y purinoceptor 10 (Homo sapiens), O00398 [V159F]
# Sequence (O00398 whole entry V159F): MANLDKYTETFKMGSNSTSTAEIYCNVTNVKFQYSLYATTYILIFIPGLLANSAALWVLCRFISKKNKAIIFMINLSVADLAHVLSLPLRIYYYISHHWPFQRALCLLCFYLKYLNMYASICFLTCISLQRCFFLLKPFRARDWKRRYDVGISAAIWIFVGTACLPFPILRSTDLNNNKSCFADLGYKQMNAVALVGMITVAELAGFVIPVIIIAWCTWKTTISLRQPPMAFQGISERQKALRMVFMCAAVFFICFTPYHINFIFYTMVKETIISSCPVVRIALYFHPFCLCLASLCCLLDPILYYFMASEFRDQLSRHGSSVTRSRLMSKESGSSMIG
# TEST_NAME: Agonist activity at N-terminal FLAG-tagged human LPS2/P2Y10 V159F mutant transfected in HEK293-A cells co-transfected with AP-TGFalpha assessed as AP-TGFalpha release by TGFalpha shedding assay relative to LysoPS
# Assay type: cell-based
# CONDITION_INFO: filed as agonist
Recorded Emax for the following compounds
Kindly provide the numeric value in % only, without the unit symbol.

Some solved cases for reference:
>>> print(df.to_string())
                                chem_smiles  assay_value
0  CC(C)(C)c1ccc(Oc2ccccc2CCC(=O)OCCCOP(=O)(O)OC[C@H](N)C(=O)O)cc1          131
1  N[C@@H](COP(=O)(O)OCCCOC(=O)CCc1ccccc1Oc1ccc(C23C[C@H]4C[C@@H](C2)C[C@@H](C3)C4)cc1)C(=O)O          128
2  N[C@@H](COP(=O)(O)OCCCOC(=O)CCc1ccccc1Oc1ccc(-c2ccccc2)cc1)C(=O)O          131
3  N[C@@H](COP(=O)(O)OCCCOC(=O)CCc1ccccc1Oc1ccccc1)C(=O)O           98

Prompt: Provide only the value of recorded Emax for Cc1ccc(Oc2ccccc2CCC(=O)OCCCOP(=O)(O)OC[C@H](N)C(=O)O)cc1
Response: 117
